Reported Emax values for the following compounds.
# Test system: Ebola virus
# procedure-details: microbe, parasite or virus in culture
# Type: cell-based, Ebolavirus (EBOV)
# run-conditions: Zaire ebolavirus, Vero, read-out: Max Effect
Structures can show the parent of a compound that is named as a salt.

[
  {
    "compound": "CN1CCN(CCCN2c3ccccc3Sc3ccc(C(F)(F)F)cc32)CC1 [Trifluoperazine Hydrochloride]",
    "display-unit": "%",
    "Emax": 95.5
  },
  {
    "compound": "O=C(Nc1cc(C(F)(F)F)cc(C(F)(F)F)c1)c1cc(Cl)ccc1O",
    "display-unit": "%",
    "Emax": 66.1
  },
  {
    "compound": "Cc1nc(Nc2ncc(C(=O)Nc3c(C)cccc3Cl)s2)cc(N2CCN(CCO)CC2)n1",
    "display-unit": "%",
    "Emax": 42.8
  },
  {
    "compound": "c1ccc2c(c1)[I+]c1ccccc1-2 [Diphenyleneiodonium chloride]",
    "display-unit": "%",
    "Emax": 80
  }
]

###

As shown below, each of these compounds has a reported Emax value.
# System: Ebola virus
# procedure-details: microbe, parasite or virus in culture
# Assay type: cell-based, Ebolavirus (EBOV)
# run-conditions: Zaire ebolavirus, Vero, read-out: Max Effect Vero
Where a name gives a salt, the structure may show the parent alone.

[
  {
    "compound": "COc1ccc(CCN2CCC(Nc3nc4ccccc4n3Cc3ccc(F)cc3)CC2)cc1 [Astemizole]",
    "Emax (%)": 96.5
  },
  {
    "compound": "CCN(CC)CCOc1ccc(/C(=C(\\Cl)c2ccccc2)c2ccccc2)cc1 [Clomiphene Citrate]",
    "Emax (%)": 96.4
  },
  {
    "compound": "CN(C)CCCN1c2ccccc2CCc2ccc(Cl)cc21 [Clomipramine Hydrochloride]",
    "Emax (%)": 96.1
  },
  {
    "compound": "O=c1[nH]c2ccccc2n1C1CCN(CCCC(c2ccc(F)cc2)c2ccc(F)cc2)CC1 [Pimozide]",
    "Emax (%)": 96.8
  },
  {
    "compound": "O=C1CCc2ccc(OCCCCN3CCN(c4cccc(Cl)c4Cl)CC3)cc2N1 [Aripiprazole]",
    "Emax (%)": 53
  },
  {
    "compound": "CN1CCN(CCCN2c3ccccc3Sc3ccc(Cl)cc32)CC1 [Prochlorperazine Edisylate]",
    "Emax (%)": 96.3
  },
  {
    "compound": "CCN(CC)CCCC(C)Nc1c2ccc(Cl)cc2nc2ccc(OC)cc12 (centres unmarked) [Quinacrine Dihydrochloride]",
    "Emax (%)": 92.3
  },
  {
    "compound": "O=C1Nc2ccc(Cl)cc2[C@@](C#CC2CC2)(C(F)(F)F)O1 [Efavirenz]",
    "Emax (%)": 63.9
  }
]

###

# Tested on: Ebola virus
# procedure-details: microbe, parasite or virus in culture
# Assay type: cell-based, Ebolavirus (EBOV)
# run-conditions: Zaire ebolavirus, Vero, read-out: Max Effect
Where a name gives a salt, the structure may show the parent alone.

[
  {
    "compound": "COC(=O)Nc1nc2ccc(C(=O)c3ccccc3)cc2[nH]1 [Mebendazole]",
    "target-or-test-system": "Ebola virus",
    "Emax": "50%"
  },
  {
    "compound": "O=c1cnn([C@@H]2O[C@H](CO)[C@@H](O)[C@H]2O)c(=O)[nH]1 [Agent 6-Azauridine, 6-Azauridine]",
    "target-or-test-system": "Ebola virus",
    "Emax": "80%"
  },
  {
    "compound": "CC[C@H]1/C=C/C=C/C[C@@H](C)[C@H](O)[C@@](C)(O)C(=O)[C@@H](C)[C@H](O)[C@@H](C)C(=O)[C@@H](C)[C@H](O)[C@@H](C)/C=C/C(=O)O[C@@H]2[C@H](C)[C@H](CC1)O[C@]1(CC[C@H](C)[C@H](C[C@@H](C)O)O1)[C@H]2C [Oligomycin]",
    "target-or-test-system": "Ebola virus",
    "Emax": "42.6%"
  },
  {
    "compound": "Clc1cc(Cl)c(OCC#CI)cc1Cl [Haloprogin]",
    "target-or-test-system": "Ebola virus",
    "Emax": "58.8%"
  },
  {
    "compound": "CNC(=O)c1cc(Oc2ccc(NC(=O)Nc3ccc(Cl)c(C(F)(F)F)c3)cc2)ccn1 [Sorafenib Tosylate]",
    "target-or-test-system": "Ebola virus",
    "Emax": "81.9%"
  },
  {
    "compound": "COC(=O)Nc1nc2ccc(Sc3ccccc3)cc2[nH]1 [Fenbendazole]",
    "target-or-test-system": "Ebola virus",
    "Emax": "50%"
  },
  {
    "compound": "Oc1c(Cl)cc(Cl)c(Cl)c1Cc1c(O)c(Cl)cc(Cl)c1Cl [Hexachlorophene]",
    "target-or-test-system": "Ebola virus",
    "Emax": "71.3%"
  },
  {
    "compound": "O=c1[nH]c2ccccc2n1C1CCN(CCCC(c2ccc(F)cc2)c2ccc(F)cc2)CC1 [Pimozide]",
    "target-or-test-system": "Ebola virus",
    "Emax": "68.5%"
  },
  {
    "compound": "CO[C@H]1C[C@H](O[C@H]2CC[C@]3(C=O)[C@H]4CC[C@]5(C)[C@@H](C6=CC(=O)OC6)CC[C@]5(O)[C@@H]4CC[C@]3(O)C2)O[C@H](C)[C@H]1O [K-Strophanthin]",
    "target-or-test-system": "Ebola virus",
    "Emax": "90%"
  },
  {
    "compound": "CO[C@@H]1[C@@H](OC)[C@H](C)[C@@](O)(CC(=O)O)O[C@H]1[C@H](C)[C@H]1O[C@@]2(CC[C@@](C)([C@H]3CC[C@@](C)([C@@H]4O[C@@H]([C@H]5O[C@](C)(O)[C@H](C)C[C@@H]5C)C[C@@H]4O[C@@H]4C[C@H](OC)[C@@H](OC)[C@H](C)O4)O3)O2)C[C@H](O)[C@H]1C [Maduramicin NH4]",
    "target-or-test-system": "Ebola virus",
    "Emax": "45.2%"
  },
  {
    "compound": "C=C(NC(=O)C(=C)NC(=O)c1csc(C2=N[C@@H]3c4csc(n4)[C@H]4NC(=O)c5csc(n5)[C@H]([C@](C)(O)[C@@H](C)O)NC(=O)[C@H]5CSC(=N5)/C(=C/C)NC(=O)[C@H]([C@@H](C)O)NC(=O)c5csc(n5)[C@]3(CC2)NC(=O)[C@H](C)NC(=O)C(=C)NC(=O)[C@H](C)NC(=O)[C@H]([C@@H](C)CC)N[C@@H]2C=Cc3c([C@H](C)O)cc(nc3[C@H]2O)C(=O)O[C@@H]4C)n1)C(N)=O [Thiostrepton]",
    "target-or-test-system": "Ebola virus",
    "Emax": "45.4%"
  },
  {
    "compound": "CC(=O)OCC1=C(C(=O)O)N2C(=O)[C@@H](NC(=O)CSc3ccncc3)[C@H]2SC1 [Cephapirin Sodium]",
    "target-or-test-system": "Ebola virus",
    "Emax": "66.2%"
  },
  {
    "compound": "CCCOc1ccc2nc(NC(=O)OC)[nH]c2c1 [Oxibendazole]",
    "target-or-test-system": "Ebola virus",
    "Emax": "47.2%"
  }
]

###

# Test system: Ebola virus
# procedure-details: microbe, parasite or virus in culture
# Type: cell-based, Ebolavirus (EBOV)
# run-conditions: Zaire ebolavirus, Vero, read-out: Max Effect
Structures can show the parent of a compound that is named as a salt.
Would you mind labelling by Emax? At or over 80% is Met, under is Not met.

[
  {
    "compound": "COc1ccc2cc1Oc1ccc(cc1)C[C@H]1c3c(cc4c(c3Oc3cc5c(cc3OC)CCN(C)[C@@H]5C2)OCO4)CCN1C",
    "category": "Not met"
  },
  {
    "compound": "CC(C)(C)c1ccc(C(O)CCCN2CCC(C(O)(c3ccccc3)c3ccccc3)CC2)cc1 (stereo not drawn)",
    "category": "Met"
  },
  {
    "compound": "OCCN1CCN(CCCN2c3ccccc3Sc3ccc(C(F)(F)F)cc32)CC1 [Fluphenazine Hydrochloride]",
    "category": "Met"
  },
  {
    "compound": "C=C1[C@@H](O)[C@@H]2O[C@]3(CC[C@H](/C=C/[C@@H](C)[C@@H]4CC(C)=C[C@@]5(O[C@H](C[C@@](C)(O)C(=O)O)CC[C@H]5O)O4)O3)CC[C@H]2O[C@@H]1[C@@H](O)C[C@H](C)[C@H]1O[C@@]2(CCCCO2)CC[C@H]1C",
    "category": "Not met"
  },
  {
    "compound": "COc1ccc(CCN2CCC(Nc3nc4ccccc4n3Cc3ccc(F)cc3)CC2)cc1",
    "category": "Met"
  }
]
